Cell viability (% @10 μM) by entry:
Test system: Tau-BiFC cells
PROTOCOL DESCRIPTION: Cell viability (cytotoxicity) in tau-BiFC cells, count of stained nuclei
Type: cell-based
CONDITION INFO: compound 10 μM; Forskolin-only group = 100% cell viability

For orientation, consider the following solved cases.
[[record]]
smiles_text = "N#CC(C#N)=NNc1ccc(Oc2cccc(C#N)c2)cc1"
result = "44.4%"

[[record]]
smiles_text = "N#CC(C#N)=NNc1ccc(OCCc2ccc(Cl)cc2)nc1"
result = "33.4%"

[[record]]
smiles_text = "N#CC(C#N)=NNc1ccc(NC(=O)c2ccc(F)cc2)nc1"
result = "66.2%"


Task: Which Cell viability (% @10 μM) value is on record for N#CC(C#N)=NNc1ccc(OCCc2ccccc2)c(C(F)(F)F)c1 ?
Output: 30.1%

Task: Item N#CC(C#N)=NNc1ccc(NC(=O)c2cscn2)nc1 has what recorded Cell viability (% @10 μM)?
Output: 158.2%
